Biological target: CCR9 (Homo sapiens (Human), UniProt P51686)
Sequence (P51686 whole entry): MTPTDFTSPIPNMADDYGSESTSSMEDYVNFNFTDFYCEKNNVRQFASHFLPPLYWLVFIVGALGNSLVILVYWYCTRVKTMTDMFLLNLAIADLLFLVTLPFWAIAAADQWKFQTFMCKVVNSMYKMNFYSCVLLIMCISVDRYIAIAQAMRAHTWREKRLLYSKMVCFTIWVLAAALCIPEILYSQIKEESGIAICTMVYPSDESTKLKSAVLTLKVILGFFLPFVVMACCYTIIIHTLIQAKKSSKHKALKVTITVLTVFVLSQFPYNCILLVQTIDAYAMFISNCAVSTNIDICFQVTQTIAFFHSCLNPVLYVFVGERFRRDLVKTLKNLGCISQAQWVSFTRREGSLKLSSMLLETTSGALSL
Assay: FLIPR calcium flux assay using MOLT4 cells, TECK stimulation
Format: cell-based
Conditions: MOLT4 cells (human T-cell line)
Procedure: Biological Activity: FLIPR Assay Using MOLT4 Cells A calcium flux assay was used to determine the ability of the compounds to interfere with the binding between CCR9 and its chemokine ligand (TECK) in MOLT4 cells (a human T-cell line). […] The increased in intracellular calcium levels was measured with the FLIPR instrument. The potency of the compound as CCR9 antagonist was calculated as an IC50 using GraphPad Prism software (variable slope four parameter). […]
pKi: −log10 of the molar value.
outcome_measure: pKi

These solved cases illustrate the format of a correct answer.
1) CC(C)(C)c1ccc(S(=O)(=O)Nc2ccc(Cl)c3c2C(=O)N(c2ccsc2C#N)C3=O)cc1 : 8.15
2) CC(C)(C)c1ccc(S(=O)(=O)Nc2ccc(Cl)c3c2C(=O)N(c2cnccn2)C3=O)cc1 : 7.80

[P] Cc1cncc(N2C(=O)c3c(Cl)ccc(NS(=O)(=O)c4ccc(C(C)(C)C)cc4)c3C2=O)n1
[Q] Cc1ccc(NS(=O)(=O)c2ccc(C(C)(C)C)cc2)c2c1C(=O)N(c1cccnc1)C2=O
Input line: Which record would sort first by descending pKi, P or Q ? Write the label of whichever entry you select.
Output line: P
(P: 7.92, Q: 6.72)

[1] O=C1c2cccc(NS(=O)(=O)c3ccc(OC(F)(F)F)cc3)c2C(=O)N1c1cccnc1
[2] Cn1cnc(N2C(=O)c3c(Cl)ccc(NS(=O)(=O)c4ccc(C(C)(C)C)cc4)c3C2=O)n1
[3] Cc1ncccc1N1C(=O)c2c(Cl)ccc(NS(=O)(=O)c3ccc(C(C)(C)C)cc3)c2C1=O
[4] COc1ccc(N2C(=O)c3c(Cl)ccc(NS(=O)(=O)c4ccc(C(C)(C)C)cc4)c3C2=O)cn1
Input line: List these items ordered by pKi, big to small. Answer with the labels in sequence, matching the requested order.
Output line: 3, 2, 4, 1
(3: 8.52, 2: 7.77, 4: 7.11, 1: 6.91)

[I] CC(C)(C)c1ccc(S(=O)(=O)Nc2ccc(Cl)c3c2C(=O)N(c2ncccn2)C3=O)cc1
[II] N#Cc1cccc(N2C(=O)c3c(Cl)ccc(NS(=O)(=O)c4ccc(OC(F)F)cc4)c3C2=O)c1
[III] O=C1c2c(Cl)ccc(NS(=O)(=O)c3ccc(OC(F)(F)F)cc3)c2C(=O)N1c1cccnc1
[IV] Cc1c(N2C(=O)c3c(Cl)ccc(NS(=O)(=O)c4ccc(C(C)(C)C)cc4)c3C2=O)ccc[n+]1[O-]
Input line: Ascending by pKi, please. Reply with the item labels sorted in the order that was asked for.
Output line: II, III, I, IV

----------
target: CCR9 (Homo sapiens (Human), UniProt P51686); assay: FLIPR calcium flux assay using MOLT4 cells, TECK stimulation; assay type: cell-based; settings: MOLT4 cells (human T-cell line)
outcome_measure: Ki (nM)

Examples from the recorded data:
1) Cn1cncc1N1C(=O)c2c(Cl)ccc(NS(=O)(=O)c3ccc(C(C)(C)C)cc3)c2C1=O [Compound 192] : 4
2) CC(C)(C)c1ccc(S(=O)(=O)Nc2ccc(Cl)c3c2C(=O)N(Cc2ccc[nH]c2=O)C3=O)cc1 [Compound 284] : 7

[1] CC(C)(C)c1ccc(S(=O)(=O)Nc2cccc3c2C(=O)N(c2cccnc2)C3=O)cc1 [Compound 1]
[2] Cc1ccc(CN2C(=O)c3c(Cl)ccc(NS(=O)(=O)c4ccc(C(C)(C)C)cc4)c3C2=O)c(C)n1 [Compound 248]
Input line: Among 1 and 2 , whose measured Ki is the smaller figure? Refer to your chosen entry by its label in the reply.
Output line: 2
(2: 70 nM, 1: 479 nM)

----------
biological target: CCR9 (Homo sapiens (Human)); test: FLIPR calcium flux assay using hCCR9 over expressed cells (Chem1-hCCR9), TECK stimulation; type: cell-based; details: Chem1-hCCR9 overexpressing cells
pKi: −log10 of the molar value.
outcome_measure: pKi

Consider the following illustrative entries.
1) COc1ncccc1CN1C(=O)c2c(Cl)ccc(NS(=O)(=O)c3ccc(C(C)(C)C)cc3)c2C1=O : 7.29
2) COc1ncccc1N1C(=O)c2c(Cl)ccc(NS(=O)(=O)c3ccc(C(C)(C)C)cc3)c2C1=O : 8.52
3) Cn1ccc(N2C(=O)c3c(Cl)ccc(NS(=O)(=O)c4ccc(C(C)(C)C)cc4)c3C2=O)n1 : 7.14
4) Cc1ccc(NS(=O)(=O)c2ccc(C(C)(C)C)cc2)c2c1C(=O)N(Cc1cccnc1)C2=O : 6.11

[I] Cc1ccc(N2C(=O)c3c(Cl)ccc(NS(=O)(=O)c4ccc(C(C)(C)C)cc4)c3C2=O)[n+]([O-])c1
[II] N#Cc1cccc(CN2C(=O)c3c(Cl)ccc(NS(=O)(=O)c4ccc(F)c(C(F)(F)F)c4)c3C2=O)c1
Input line: Among I and II , which shows a numerically higher pKi result? Answer format: the label of the selected item.
Output line: I
(I: 7.20, II: 6.80)

[1] Cn1cc(N2C(=O)c3c(Cl)ccc(NS(=O)(=O)c4ccc(C(C)(C)C)cc4)c3C2=O)ccc1=O
[2] CC(C)(C)c1ccc(S(=O)(=O)Nc2cccc3c2C(=O)N(c2cccnc2)C3=O)cc1
[3] CC(C)(C)c1ccc(S(=O)(=O)Nc2ccc(C#N)c3c2C(=O)N(Cc2cccnc2)C3=O)cc1
[4] CC(C)(C)c1ccc(S(=O)(=O)Nc2ccc(Cl)c3c2C(=O)N(Cc2c(F)ccc[n+]2[O-])C3=O)cc1
Input line: // ascending sort on recorded pKi Could you list the labels in the order requested?
Output line: 2, 3, 1, 4
(2: 5.91, 3: 7.01, 1: 7.64, 4: 8.15)

[A] CC(C)(C)c1ccc(S(=O)(=O)Nc2ccc(Cl)c3c2C(=O)N(Cc2ncccn2)C3=O)cc1
[B] Cc1cncc(CN2C(=O)c3c(Cl)ccc(NS(=O)(=O)c4ccc(C(C)(C)C)cc4)c3C2=O)c1
Input line: Exercise: compare A and B ; which one has the greater pKi? // return label of chosen record
Output line: A
(A: 7.52, B: 7.17)

[a] Cc1cccc(N2C(=O)c3c(Cl)ccc(NS(=O)(=O)c4ccc(C(C)(C)C)cc4)c3C2=O)[n+]1[O-]
[b] COc1ccc(N2C(=O)c3c(Cl)ccc(NS(=O)(=O)c4ccc(C(C)(C)C)cc4)c3C2=O)c(OC)n1
Input line: Of the two listed items, which has the higher pKi? First: a Second: b Give the label of your selection.
Output line: b

----------
target: UniProtKB P51686; assay: FLIPR calcium flux assay using hCCR9 over expressed cells (Chem1-hCCR9), TECK stimulation; assay type: cell-based; details: Chem1-hCCR9 overexpressing cells
outcome_measure: Ki (nM)

1. Cc1ccnc(N2C(=O)c3c(Cl)ccc(NS(=O)(=O)c4ccc(C(C)(C)C)cc4)c3C2=O)c1 [Compound 225] : 51
2. N#Cc1cccc(CN2C(=O)c3c(Cl)ccc(NS(=O)(=O)c4ccc(C(F)(F)F)cc4)c3C2=O)c1 [Compound 128] : 447
3. Cc1cc[n+]([O-])cc1CN1C(=O)c2c(Cl)ccc(NS(=O)(=O)c3ccc(C(C)(C)C)cc3)c2C1=O [Compound 213] : 23
4. COc1cc(C#N)cc(N2C(=O)c3c(Cl)ccc(NS(=O)(=O)c4ccc(C(C)(C)C)cc4)c3C2=O)c1 [Compound 190] : 81
5. COc1cccnc1N1C(=O)c2c(Cl)ccc(NS(=O)(=O)c3ccc(C(C)(C)C)cc3)c2C1=O [Compound 202] : 49

[A] CC(C)(C)c1ccc(S(=O)(=O)Nc2ccc(Cl)c3c2C(=O)N(c2sccc2C#N)C3=O)cc1 [Compound 179]
[B] O=C1c2c(Cl)ccc(NS(=O)(=O)c3ccc(C(F)(F)F)cc3)c2C(=O)N1Cc1cccnc1 [Compound 66]
Input line: Which gives the smaller Ki number: A or B ? Please identify the chosen entry by its label.
Output line: A
(A: 57 nM, B: 269 nM)

----------
Target: CCR9 (Homo sapiens (Human), UniProt P51686)
Experiment: FLIPR calcium flux assay using MOLT4 cells, TECK stimulation
Format: cell-based
Details: MOLT4 cells (human T-cell line)
Description: Biological Activity: FLIPR Assay Using MOLT4 Cells A calcium flux assay was used to determine the ability of the compounds to interfere with the binding between CCR9 and its chemokine ligand (TECK) in MOLT4 cells (a human T-cell line). […] The increased in intracellular calcium levels was measured with the FLIPR instrument. The potency of the compound as CCR9 antagonist was calculated as an IC50 using GraphPad Prism software (variable slope four parameter). […]
pKi: −log10 of the molar value.
outcome_measure: pKi

1) Cc1ccc(N2C(=O)c3c(Cl)ccc(NS(=O)(=O)c4ccc(C(C)(C)C)cc4)c3C2=O)nc1 : 7.68

[1] COc1cncc(N2C(=O)c3c(C#N)ccc(NS(=O)(=O)c4ccc(C(C)(C)C)cc4)c3C2=O)c1
[2] N#Cc1cccc(CN2C(=O)c3c(Cl)ccc(NS(=O)(=O)c4ccc(C(F)(F)F)cc4)c3C2=O)c1
[3] Cc1cncc(N2C(=O)c3c(Cl)ccc(NS(=O)(=O)c4ccc(C(C)(C)C)cc4)c3C2=O)c1
[4] CC(C)(C)c1ccc(S(=O)(=O)Nc2ccc(Cl)c3c2C(=O)N(c2cncc(C#N)c2)C3=O)cc1
Input line: Could you please order the items by pKi, going from the lowest number to the highest? Answer by listing the labels in the requested order.
Output line: 2, 4, 3, 1
